Values were extracted from paper PMC6745501.

- Target Or System: T1, Arabidopsis COP1^349–675 WD40 domain (Arabidopsis, UniProt P43254 349-675)
- T1 chain: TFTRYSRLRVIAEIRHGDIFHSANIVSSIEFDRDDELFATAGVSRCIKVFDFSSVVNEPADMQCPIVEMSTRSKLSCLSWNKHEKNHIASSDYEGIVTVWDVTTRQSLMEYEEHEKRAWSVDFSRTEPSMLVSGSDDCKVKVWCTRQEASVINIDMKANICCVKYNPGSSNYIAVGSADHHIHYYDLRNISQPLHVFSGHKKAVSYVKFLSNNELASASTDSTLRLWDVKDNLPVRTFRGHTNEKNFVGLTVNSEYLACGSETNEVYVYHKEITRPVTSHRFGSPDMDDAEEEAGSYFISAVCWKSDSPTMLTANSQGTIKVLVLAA
- Protocol Text: ITC
pKd: −log10 of the molar value.
Reported Endpoint: pKd

{"Binder": "RYAVVPDE [UVR8^406–413 VP peptide]", "Readout Number": 3.72}
{"Binder": "EIRRVPEFGG [HY5^39–48 VP peptide]", "Readout Number": 4.64}
